Protocol Description: gradient 5% acetonitrile 3 min, to 50% in 2 min, to 85% in 15 min, held 3 min, 100 µL/min
Experimental Context: column: Zorbax Extend-C18 2.1 x 50 mm; eluents: water / acetonitrile, 0.1% formic acid
Below: a set of entries, each annotated with reported RP-LC retention time.
Give a bare numeral; the unit s is implied.

These recorded examples may help you get a feel for the data.
[[record]]
compound = "Cc1nc2n(c(=O)c1C)CCN2CC(=O)NCc1cccs1"
readout_label = "RP-LC retention time"
value_unit = "s"
obs_value = 619

[[record]]
compound = "Cc1c(-c2ccnc(N3CCN(C)CC3)n2)cnc2nc(-c3cccs3)nn12"
readout_label = "RP-LC retention time"
value_unit = "s"
obs_value = 601

[[record]]
compound = "CN(C)CCNC(=O)C1CCN(c2nn3cc(-c4ccc(F)cc4)nc3s2)CC1"
readout_label = "RP-LC retention time"
value_unit = "s"
obs_value = 636

[[record]]
compound = "CCn1c(=O)c2cc(C(=O)Nc3ccc4c(c3)CCC4)nn2c2ccccc21"
readout_label = "RP-LC retention time"
value_unit = "s"
obs_value = 1090

[[record]]
compound = "CCOC(=O)N1CCN(c2nc(F)c(F)c(S(=O)(=O)CCNc3ccccc3)c2F)CC1"
readout_label = "RP-LC retention time"
value_unit = "s"
obs_value = 1010

[[record]]
compound = "Cc1nc(-c2ccc3c(c2)n(CC(=O)N2c4ccccc4CC2C)c(=O)n3C(C)C)no1 (stereo unspecified)"
readout_label = "RP-LC retention time"
value_unit = "s"
obs_value = 989


Query: Provide only the value of recorded RP-LC retention time for CCN(CC)CCNC(=O)C1c2ccccc2C(=O)N2CCc3cc(OC)c(OC)cc3C12 (stereo unspecified)
Response: 599

---

Protocol Description: gradient 5% acetonitrile 3 min, to 50% in 2 min, to 85% in 15 min, held 3 min, 100 µL/min
Experimental Context: column: Zorbax Extend-C18 2.1 x 50 mm; eluents: water / acetonitrile, 0.1% formic acid
Below: a set of entries, each annotated with reported RP-LC retention time.
Give a bare numeral; the unit s is implied.

Query: Provide only the value of recorded RP-LC retention time for CN(CC1CCOC1)C(=O)c1cccc(Br)c1 (centres undefined)
Response: 718

Query: Provide only the value of recorded RP-LC retention time for Cc1cc(Cl)ccc1S(=O)(=O)NCC1CN(C)CC12CCCCC2 (centres undefined)
Response: 713

Query: Provide only the value of recorded RP-LC retention time for "CCN(CC)CCNC(=O)c1nnc(-c2ccc(S(=O)(=O)N3CCC(C)CC3)cc2)o1"
Response: 696

Query: Provide only the value of recorded RP-LC retention time for "O=C(c1cc2ccccc2[nH]1)N1CCOCC1"
Response: 713

---

Below: a set of entries, each annotated with reported RP-LC retention time.
Protocol Description: gradient 5% acetonitrile 3 min, to 50% in 2 min, to 85% in 15 min, held 3 min, 100 µL/min
Experimental Context: column: Zorbax Extend-C18 2.1 x 50 mm; eluents: water / acetonitrile, 0.1% formic acid
Please format your answer as a value with the unit trailing.

These recorded examples may help you get a feel for the data.
[[record]]
compound = "Cc1noc(C)c1CNC(=O)NC1CCCCC1"
readout_label = "RP-LC retention time"
obs_value = "706 s"

[[record]]
compound = "CCCCCCNc1nc(-c2ccc(OC)cc2)c(CCC(=O)O)s1"
readout_label = "RP-LC retention time"
obs_value = "716 s"

[[record]]
compound = "O=C(c1cn(-c2cc(-c3nc(C4CC4)no3)ccn2)cn1)N1CCCCCC1"
readout_label = "RP-LC retention time"
obs_value = "883 s"

[[record]]
compound = "Cc1cc(C(=O)N2CCCCCC2c2nnc(C)o2)no1 (centres undefined)"
readout_label = "RP-LC retention time"
obs_value = "698 s"

[[record]]
compound = "CCn1cc(C(=O)Nc2cc(Cl)ccc2C)c2cccnc21"
readout_label = "RP-LC retention time"
obs_value = "922 s"

[[record]]
compound = "CC(C)n1c(CCNC(=O)c2ccccc2Cl)nc2cccnc21"
readout_label = "RP-LC retention time"
obs_value = "651 s"


Now take the following compound into account.
Query: Provide only the value of recorded RP-LC retention time for "COC(=O)c1ccc(CSc2nc3ccccc3[nH]2)cc1"
Response: 648 s

---

Protocol Description: gradient 5% acetonitrile 3 min, to 50% in 2 min, to 85% in 15 min, held 3 min, 100 µL/min
Experimental Context: column: Zorbax Extend-C18 2.1 x 50 mm; eluents: water / acetonitrile, 0.1% formic acid
Readout Label: RP-LC retention time (s)
Give a bare numeral; the unit s is implied.

These recorded examples may help you get a feel for the data.
[[record]]
smiles_repr = "O=C(NCCOc1cc(N2CCCC2)ncn1)NCc1ccccc1"
readout_label = "RP-LC retention time"
value_unit = "s"
obs_value = 575

[[record]]
smiles_repr = "O=C(NCc1ccco1)C1CCN(c2nc3ccsc3c(=O)n2Cc2ccccc2)CC1"
readout_label = "RP-LC retention time"
value_unit = "s"
obs_value = 829


Now take the following compound into account.
Query: Provide only the value of recorded RP-LC retention time for "COc1ccccc1NC(=O)Cc1csc2nc(-c3ccc(OC)c(OC)c3)cn12"
Response: 734

---

Protocol Description: gradient 5% acetonitrile 3 min, to 50% in 2 min, to 85% in 15 min, held 3 min, 100 µL/min
Experimental Context: column: Zorbax Extend-C18 2.1 x 50 mm; eluents: water / acetonitrile, 0.1% formic acid
Readout Label: RP-LC retention time (s)
Give a bare numeral; the unit s is implied.

[[record]]
smiles_repr = "CCc1ccc(C2=C(C)C(N3CCCN(C(=O)CCC(C)C)CC3)=NS2(=O)=O)cc1"
value_unit = "s"
obs_value = 974

[[record]]
smiles_repr = "COc1ccc(-c2nc(NC(=O)CS(=O)(=O)c3ccc(C)cc3)sc2C)cc1"
value_unit = "s"
obs_value = 1010

[[record]]
smiles_repr = "Cc1cc(C)c(S(=O)(=O)Nc2ccc(Cn3cncn3)cc2)c(C)c1"
value_unit = "s"
obs_value = 798

[[record]]
smiles_repr = "O=C(Nc1cc(-c2ccsc2)no1)c1ccc(Cl)s1"
value_unit = "s"
obs_value = 1030

[[record]]
smiles_repr = "O=S(=O)(CCCOc1ccc(F)cc1)NC1CC1"
value_unit = "s"
obs_value = 785


Query: Provide only the value of recorded RP-LC retention time for "O=C(NC1CCCC1)C(=O)c1cccn1Cc1ccc(F)cc1"
Response: 1020

Query: Provide only the value of recorded RP-LC retention time for "O=c1c(S(=O)(=O)N2CCCC2)cccn1Cc1nc(-c2ccccc2Cl)no1"
Response: 808

---

Protocol Description: gradient 5% acetonitrile 3 min, to 50% in 2 min, to 85% in 15 min, held 3 min, 100 µL/min
Experimental Context: column: Zorbax Extend-C18 2.1 x 50 mm; eluents: water / acetonitrile, 0.1% formic acid
Readout Label: RP-LC retention time (s)
Give a bare numeral; the unit s is implied.

[[record]]
compound = "CC1CCN(CCNC(=O)c2ccc3c(c2)nc2n3CCN(Cc3ccccc3)C2=O)CC1"
readout_label = "RP-LC retention time"
obs_value = 621

[[record]]
compound = "O=C(CN1C(=O)CCCc2cc(S(=O)(=O)N3CCCCCC3)ccc21)NCc1ccc(F)cc1"
readout_label = "RP-LC retention time"
obs_value = 919


Query: Provide only the value of recorded RP-LC retention time for "O=C(CCSc1ccccc1)Nc1cccc(-c2ccn[nH]2)c1"
Response: 769

Query: Provide only the value of recorded RP-LC retention time for "CN(C)c1ccc(CNC(=O)c2nnc(-c3ccc(S(=O)(=O)N4CCOCC4)cc3)o2)cc1"
Response: 648

Query: Provide only the value of recorded RP-LC retention time for O=C(CCC(=O)N1CC2CCCN2c2ccccc21)N1CCN(Cc2ccc3c(c2)OCO3)CC1 (configuration not stated)
Response: 692

Query: Provide only the value of recorded RP-LC retention time for "CCOC(=O)Cc1ccc(NC(=O)N2CCSc3nc(C)cc(C)c32)cc1"
Response: 735

Query: Provide only the value of recorded RP-LC retention time for O=C1CC(C(F)(F)F)c2c(c(C(=O)O)cn2-c2cccc(F)c2)N1 (configuration not stated)
Response: 747

---

Protocol Description: gradient 5% acetonitrile 3 min, to 50% in 2 min, to 85% in 15 min, held 3 min, 100 µL/min
Experimental Context: column: Zorbax Extend-C18 2.1 x 50 mm; eluents: water / acetonitrile, 0.1% formic acid
Readout Label: RP-LC retention time (s)
Give a bare numeral; the unit s is implied.

Query: Provide only the value of recorded RP-LC retention time for "CCNC(=O)N1CCN(CCCC(c2ccc(F)cc2)c2ccc(F)cc2)CC1"
Response: 766

Query: Provide only the value of recorded RP-LC retention time for "O=S(=O)(Nc1cccc(-c2cn3cccnc3n2)c1)c1ccc(Br)cc1"
Response: 769

Query: Provide only the value of recorded RP-LC retention time for COc1nn(C)cc1C(=O)N1CCCC(COCc2ccccc2)C1 (stereo unspecified)
Response: 742
